Molecular target: GST-Ap-NF-kB RHD (Exaiptasia pallida (Aiptasia), UniProt A0A913YAJ5 2-422)
Sequence: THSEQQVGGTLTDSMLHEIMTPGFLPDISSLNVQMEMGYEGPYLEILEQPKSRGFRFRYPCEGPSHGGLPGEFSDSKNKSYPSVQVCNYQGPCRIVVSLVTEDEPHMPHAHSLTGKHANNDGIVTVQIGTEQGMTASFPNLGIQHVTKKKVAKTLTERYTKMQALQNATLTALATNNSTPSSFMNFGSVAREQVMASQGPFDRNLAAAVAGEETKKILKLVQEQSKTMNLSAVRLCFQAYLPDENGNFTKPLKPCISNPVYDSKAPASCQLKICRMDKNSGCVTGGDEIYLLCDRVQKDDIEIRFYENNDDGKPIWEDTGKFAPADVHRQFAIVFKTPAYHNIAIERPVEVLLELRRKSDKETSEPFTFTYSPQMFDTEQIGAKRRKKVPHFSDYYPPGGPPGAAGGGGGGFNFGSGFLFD
Test: protein-binding microarray (PBM); PBM: ~300 nM protein, 6 mM HEPES pH 7.8, 80 mM KCl, 0.5 mM EDTA, 0.5 mM EGTA, 6% glycerol, 35 ng/ul poly-dIdC, 1% milk, 1 h, room temperature; high values mean tight binding
Conditions: dsDNA, one strand shown

residue_sequence | binding signal
CCGATTAACATCAGGGGAAAAAATGATGTTAATCGGGTCTTGATTCGCTTGACGCTGCTG | 6.24 z-score
CCGATTAACATCAAGAAAATCCCTGATGTTAATCGGGTCTTGATTCGCTTGACGCTGCTG | 5.56 z-score
CCGATTAACATCAGGGGTTACCCTGATGTTAATCGGGTCTTGATTCGCTTGACGCTGCTG | 6.28 z-score
CCGATTAACATCACCCCAGCCCCTGATGTTAATCGGGTCTTGATTCGCTTGACGCTGCTG | 3.28 z-score
CCGATTAACATCAAATAAACCCCTGATGTTAATCGGGTCTTGATTCGCTTGACGCTGCTG | 4.74 z-score
CCGATTAACATCACAGGGAATTCTGATGTTAATCGGGTCTTGATTCGCTTGACGCTGCTG | 4.57 z-score
CCGATTAACATCAGGGGCTTTACTGATGTTAATCGGGTCTTGATTCGCTTGACGCTGCTG | 4.24 z-score
CCGATTAACATCAGGGACCTCCCTGATGTTAATCGGGTCTTGATTCGCTTGACGCTGCTG | 5.47 z-score
CCGATTAACATCACGGGGATTTATGATGTTAATCGGGTCTTGATTCGCTTGACGCTGCTG | 7.32 z-score

----------
Biological target: GST-Aq-NF-kB (Amphimedon queenslandica, UniProt A9Y5G7 2-389)
Sequence: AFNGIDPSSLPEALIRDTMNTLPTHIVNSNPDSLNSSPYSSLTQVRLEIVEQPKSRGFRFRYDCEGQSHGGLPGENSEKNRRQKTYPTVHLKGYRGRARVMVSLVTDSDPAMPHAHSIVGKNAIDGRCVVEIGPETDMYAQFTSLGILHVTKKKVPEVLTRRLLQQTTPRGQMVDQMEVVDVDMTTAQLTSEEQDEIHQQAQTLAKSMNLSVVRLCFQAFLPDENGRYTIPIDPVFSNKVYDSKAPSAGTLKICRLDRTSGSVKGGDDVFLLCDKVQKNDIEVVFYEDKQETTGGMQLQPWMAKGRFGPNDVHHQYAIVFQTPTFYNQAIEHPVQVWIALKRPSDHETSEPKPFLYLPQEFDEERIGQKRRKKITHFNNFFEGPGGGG
Assay: protein-binding microarray (PBM); PBM: ~300 nM protein, 6 mM HEPES pH 7.8, 80 mM KCl, 0.5 mM EDTA, 0.5 mM EGTA, 6% glycerol, 35 ng/ul poly-dIdC, 1% milk, 1 h, room temperature; Ap Aiptasia and Nv Nematostella (sea anemones) / Co Capsaspora / Aq Amphimedon (sponge) / Dm Drosophila / Hu human; RHD is the Rel homology domain; high values mean tight binding
Conditions: dsDNA, one strand shown

residue_sequence | binding signal
CCGATTAACATCACTGTTTCCCCTGATGTTAATCGGGTCTTGATTCGCTTGACGCTGCTG | 4.25 z-score
CCGATTAACATCAGGGAAATTAATGATGTTAATCGGGTCTTGATTCGCTTGACGCTGCTG | 4.81 z-score
CCGATTAACATCAGGGGCGTTTATGATGTTAATCGGGTCTTGATTCGCTTGACGCTGCTG | 3.54 z-score
CCGATTAACATCAGGATACCCCCTGATGTTAATCGGGTCTTGATTCGCTTGACGCTGCTG | 6.35 z-score
CCGATTAACATCACGGGATTTGGTGATGTTAATCGGGTCTTGATTCGCTTGACGCTGCTG | 1.61 z-score
